target: Human HM74A (Homo sapiens); construct: expressed in transfected cells; P2 membrane fractions; experiment: [35S]-GTPγS binding assay on HM74A membranes (10 μl and 50 μl formats); assay type: biochemical; details: 10 μl and/or 50 μl assay, in which they were tested; +/−0.3 log unit; read-out: pEC50 in the [35S]-GTPγS binding assays (converted)
Sequence (Q8TDS4 whole entry): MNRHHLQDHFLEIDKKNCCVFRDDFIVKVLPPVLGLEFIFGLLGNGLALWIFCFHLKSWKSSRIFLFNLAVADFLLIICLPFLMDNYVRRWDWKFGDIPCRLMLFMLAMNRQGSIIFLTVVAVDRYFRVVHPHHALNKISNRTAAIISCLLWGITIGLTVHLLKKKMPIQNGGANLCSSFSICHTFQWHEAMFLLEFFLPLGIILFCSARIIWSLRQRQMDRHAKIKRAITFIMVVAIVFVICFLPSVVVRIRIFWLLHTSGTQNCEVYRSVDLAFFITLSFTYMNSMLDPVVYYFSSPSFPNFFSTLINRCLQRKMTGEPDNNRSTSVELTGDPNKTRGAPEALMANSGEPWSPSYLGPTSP

Structure Smiles String: O=c1c2[nH]c(Cl)nc2n(CCN2CCCCC2)c(=O)n1CCCc1nc(Cc2ccc(F)cc2F)no1
EC50: > 50.1 µM

Structure Smiles String: CN1CCN(CCCn2c(=O)n(CCCc3nc(Cc4ccc(F)cc4F)no3)c(=O)c3[nH]c(Cl)nc32)CC1
EC50: > 50.1 µM

Structure Smiles String: CN(C)CCn1c(=O)n(CCCc2nc(Cc3ccc(F)cc3F)no2)c(=O)c2[nH]c(Cl)nc21
EC50: > 50.1 µM

Structure Smiles String: O=c1c2[nH]c(Cl)nc2n(CCN2CCCC2)c(=O)n1CCCc1nc(Cc2ccc(F)cc2F)no1
EC50: > 50.1 µM

Structure Smiles String: O=c1c2[nH]c(Cl)nc2n(CCN2CCCCCC2)c(=O)n1CCCc1nc(Cc2ccc(F)cc2F)no1
EC50: > 50.1 µM

Structure Smiles String: CN(C)C(C)(C)Cn1c(=O)n(CCCc2nc(Cc3ccc(F)cc3F)no2)c(=O)c2[nH]c(Cl)nc21
EC50: > 50.1 µM

Structure Smiles String: CN(C)CCCn1c(=O)n(CCCc2nc(Cc3ccc(F)cc3F)no2)c(=O)c2[nH]c(Cl)nc21
EC50: > 50.1 µM

Values were extracted from patent US20100179128A1.
